molecular target: BRM (Homo sapiens, UniProt P51531); construct: made in house; host or cells: High Five insect cells; assay: ATPase catalytic activity assay (ADP-Glo), BRM; type: biochemical; settings: ATPase assay, selectivity BRG1/BRM, Table 10
Sequence (P51531 whole entry): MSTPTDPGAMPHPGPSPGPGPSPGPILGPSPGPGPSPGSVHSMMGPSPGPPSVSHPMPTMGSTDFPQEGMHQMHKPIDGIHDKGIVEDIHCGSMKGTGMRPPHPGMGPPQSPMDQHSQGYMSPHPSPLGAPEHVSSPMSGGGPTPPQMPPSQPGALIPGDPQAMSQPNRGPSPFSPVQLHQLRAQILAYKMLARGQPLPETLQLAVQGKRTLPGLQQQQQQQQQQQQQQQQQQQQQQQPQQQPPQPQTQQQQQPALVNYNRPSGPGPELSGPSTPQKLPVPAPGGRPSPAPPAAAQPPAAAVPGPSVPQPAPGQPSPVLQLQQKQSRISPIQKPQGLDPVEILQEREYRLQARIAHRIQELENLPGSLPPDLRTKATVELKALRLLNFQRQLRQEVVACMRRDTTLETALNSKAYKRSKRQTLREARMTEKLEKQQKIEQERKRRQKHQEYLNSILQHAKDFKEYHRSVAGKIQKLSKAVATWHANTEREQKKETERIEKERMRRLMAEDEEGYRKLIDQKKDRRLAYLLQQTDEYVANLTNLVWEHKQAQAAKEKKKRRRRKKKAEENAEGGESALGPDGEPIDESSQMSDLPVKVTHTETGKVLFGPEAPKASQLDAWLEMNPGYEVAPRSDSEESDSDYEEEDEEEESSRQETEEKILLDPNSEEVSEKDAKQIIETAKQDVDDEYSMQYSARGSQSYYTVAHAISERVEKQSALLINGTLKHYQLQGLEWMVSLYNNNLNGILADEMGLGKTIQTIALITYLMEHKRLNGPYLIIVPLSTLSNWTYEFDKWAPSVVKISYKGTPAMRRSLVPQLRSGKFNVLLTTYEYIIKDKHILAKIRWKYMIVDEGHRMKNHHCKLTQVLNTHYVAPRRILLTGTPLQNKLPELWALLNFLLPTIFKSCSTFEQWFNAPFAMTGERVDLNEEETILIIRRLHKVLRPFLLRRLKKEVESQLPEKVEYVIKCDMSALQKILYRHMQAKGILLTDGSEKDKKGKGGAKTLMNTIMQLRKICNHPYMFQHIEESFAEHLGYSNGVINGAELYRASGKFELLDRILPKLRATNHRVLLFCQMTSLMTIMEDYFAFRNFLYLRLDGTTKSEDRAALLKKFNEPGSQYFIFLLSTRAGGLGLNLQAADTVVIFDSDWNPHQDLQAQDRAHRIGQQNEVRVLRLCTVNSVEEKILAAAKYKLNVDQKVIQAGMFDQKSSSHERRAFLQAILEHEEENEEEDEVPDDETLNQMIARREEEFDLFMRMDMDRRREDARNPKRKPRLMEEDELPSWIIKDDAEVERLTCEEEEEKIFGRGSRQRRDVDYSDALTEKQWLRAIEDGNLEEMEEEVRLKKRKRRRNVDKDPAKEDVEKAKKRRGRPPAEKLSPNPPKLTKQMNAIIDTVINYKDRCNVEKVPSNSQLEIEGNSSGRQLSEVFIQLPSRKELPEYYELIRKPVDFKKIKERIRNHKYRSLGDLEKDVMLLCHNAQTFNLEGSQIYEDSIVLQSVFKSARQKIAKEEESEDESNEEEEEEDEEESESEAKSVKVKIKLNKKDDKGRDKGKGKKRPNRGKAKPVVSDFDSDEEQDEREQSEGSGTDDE
Measured Quantity: Ratio (BRG1 IC50 (μM) divided by BRM IC50 (μM))
// keep it numeric: no unit symbol after the value

Answered examples (5):
Can you look up Ratio (BRG1 IC50 (μM) divided by BRM IC50 (μM)) on BRM (Homo sapiens, UniProt P51531) for C[C@@H]1C[C@@H]1c1cnc2c(c1)OCCN2c1ccc2cnc(CNC(=O)c3cc(F)c4c(c3)S(=O)(=O)[C@@H](F)CCO4)cc2n1 [Compound 192] ?
11.37

And then COc1nc(C(F)F)ccc1-c1ccc2cnc(CNC(=O)c3cc(F)c4c(c3)S(=O)(=O)[C@@H](F)COC4)cc2n1 [Compound 53] , what is it?
19.48

Then this compound: COc1nc(C(C)(F)F)ccc1-c1ccc2cnc(CNC(=O)c3cc(F)c4c(c3)S(=O)(=O)[C@@H](F)CCO4)cc2n1 [Compound 150]
21.42

Item: Cn1ccc2c(-c3ccc4cnc(CNC(=O)c5cc(F)c6c(c5)S(=O)(=O)[C@@H](F)CCO6)cc4n3)cccc21 [Compound 191]
10.64

What about COCCOc1ccc2c(c1)N(c1ccc3cnc(CNC(=O)c4cc(F)c5c(c4)S(=O)(=O)[C@@H](F)CCO5)cc3n1)CCO2 [Compound 35] ?
13.74

Further cases:
# query: Ratio (BRG1 IC50 (μM) divided by BRM IC50 (μM)) | item O=C(NCc1cc2nc(N3CCOc4cc(N5CC[C@H]5CF)cnc43)ccc2cn1)c1cc(Br)c2c(c1)S(=O)(=O)[C@@H](F)CCO2 [Compound 323] | system: BRM (Homo sapiens, UniProt P51531)
13.90

Again, but for C[C@@H]1CN(c2cccc(-c3ccc4cnc(CNC(=O)c5cc(F)c6c(c5)S(=O)(=O)[C@H](F)C[C@H](C)O6)cc4n3)n2)C[C@H](C)O1 [Compound 34]
12.17

Query [2H]C([2H])([2H])Oc1nscc1-c1ccc2cnc(CNC(=O)c3cc(F)c4c(c3)S(=O)(=O)[C@@H](F)CCO4)cc2n1 [Compound 226] next
14.90
